Tested on: Potassium voltage-gated channel subfamily H member 2, brain isoform KCNH2 3.1 (human)
Experiment: qHTS for Inhibitors of KCHN2 3.1: Mutant qHTS; also: % is scaled to controls: 0 for no effect and ±100 for the full control effect
Conditions: U2OS KCNH2 3.1, thallium flux FluxOr; hits give low values
The whole screen tested about 340,000 compounds, of which about 3,300 (0.97%) were called active. The sample holds actives, similar compounds and a random draw of the others, so the mix is not that of the screen.
measureName: activity change (%)

{"compound": "CC12C(=O)N(c3ccccc3)C(=O)C1C(c1ccccc1)N1CCCN12 (configuration not stated)", "measureName": "activity change", "unitTag": "%", "val": 2.73}
{"compound": "Cc1cc(C)c2cc(C#N)c(N3CCNCC3)nc2c1", "measureName": "activity change", "unitTag": "%", "val": 15.5}
{"compound": "C[C@H]1NS(=O)(=O)c2cc(Cl)ccc2O[C@@H]1c1ccccc1", "measureName": "activity change", "unitTag": "%", "val": -5.74}
{"compound": "CCCCN(C)CCCNC(=O)c1cc(-c2cccs2)nc2ccccc12", "measureName": "activity change", "unitTag": "%", "val": -71.7}
{"compound": "CN(C)C1=NC[C@H](Cc2ccccc2)N1CCc1ccc(F)cc1", "measureName": "activity change", "unitTag": "%", "val": -104}
{"compound": "CN(C)CCN(C(=O)CN1C(=O)c2ccccc2C1=O)c1nc2cc3c(cc2s1)OCCO3", "measureName": "activity change", "unitTag": "%", "val": 4.48}
{"compound": "O=C(CC(CC(=O)c1ccccc1)c1ccco1)c1ccccc1", "measureName": "activity change", "unitTag": "%", "val": -1.01}
{"compound": "Cc1cccc(C)c1NC(=O)N1CC(C)OC(C)C1 (configuration not stated)", "measureName": "activity change", "unitTag": "%", "val": -192}
{"compound": "C=CCOc1cccc(C2C(C(=O)c3ccc(C)o3)=C(O)C(=O)N2CCN2CCOCC2)c1 (configuration not stated)", "measureName": "activity change", "unitTag": "%", "val": -2.42}
{"compound": "CC(C)C1C2=C(CC(C)(C)CC2=O)ON1c1ccccc1 (configuration not stated)", "measureName": "activity change", "unitTag": "%", "val": -4.1}
{"compound": "Cc1cccc(C(=O)NC2CCN(CC(=O)Nc3cccc(Cl)c3)CC2)c1", "measureName": "activity change", "unitTag": "%", "val": -1.48}
{"compound": "Cc1ccc(OCc2nnc(SC3CCc4ccccc4C3=O)n2C)cc1 (configuration not stated)", "measureName": "activity change", "unitTag": "%", "val": -114}
{"compound": "CCN1C(=O)[C@H]2[C@@H](c3ccccc3)N[C@]3(CCCN(Cc4ccc(C)cc4)C3=O)[C@H]2C1=O", "measureName": "activity change", "unitTag": "%", "val": 28.9}
{"compound": "Cc1ccc(C)c(NC(=S)NNC(=S)Nc2ccc(C(C)C)cc2)c1", "measureName": "activity change", "unitTag": "%", "val": -96.6}
{"compound": "Cc1cccnc1NC(=O)CSc1nnc(COc2ccc(C(C)C)cc2)n1C", "measureName": "activity change", "unitTag": "%", "val": 13.2}
{"compound": "CC[C@]1(C(=O)OC)[C@H]2C(=O)N(Cc3ccccc3)C(=O)[C@H]2[C@H]2CN=C(SCc3ccc(C#N)cc3)N21", "measureName": "activity change", "unitTag": "%", "val": 4.34}
{"compound": "CCOc1ccc(-c2nc(N)ncc2-c2ccccc2OC)c(O)c1", "measureName": "activity change", "unitTag": "%", "val": -18.2}
{"compound": "CC[C@]1(C(=O)OC)[C@H]2C(=O)N(Cc3ccccc3)C(=O)[C@H]2[C@H]2CN=C(SCc3ccc(Cl)cc3)N21", "measureName": "activity change", "unitTag": "%", "val": -98.8}
{"compound": "CNC(=O)c1ccc(CN(C)C(=O)c2cc(C3CC3)nc3c2cnn3C(C)C)cc1", "measureName": "activity change", "unitTag": "%", "val": 6.55}
{"compound": "COc1ccc(-n2cc(CNC3CCOCC3)c(-c3cccc(F)c3)n2)cc1", "measureName": "activity change", "unitTag": "%", "val": -75}
{"compound": "CCCCN1C(N)=NC[C@@H]1Cc1ccccc1", "measureName": "activity change", "unitTag": "%", "val": 12.8}
{"compound": "O=C(c1ccc(OC2CCN(C/C=C/c3ccc(F)cc3)CC2)cc1)N1CCCCC1", "measureName": "activity change", "unitTag": "%", "val": -73.2}
{"compound": "Cc1ccc2nc(N(CCN(C)C)C(=O)C3=COCCO3)sc2c1", "measureName": "activity change", "unitTag": "%", "val": -3.64}
{"compound": "O=[N+]([O-])c1ccc(C(S(=O)(=O)Cc2ccccc2)S(=O)(=O)Cc2ccccc2)cc1", "measureName": "activity change", "unitTag": "%", "val": -21.9}
{"compound": "O=NN(CCCl)C(=O)NCCc1cccc[n+]1[O-]", "measureName": "activity change", "unitTag": "%", "val": -3.54}
{"compound": "Cc1cccc2sc(N(CCCN(C)C)C(=O)CCS(=O)(=O)c3ccccc3)nc12", "measureName": "activity change", "unitTag": "%", "val": -7.9}
{"compound": "CC(=O)Nc1ccc(CN2CCC(Oc3ccc(C(=O)N4CCCC4)cc3)CC2)cc1", "measureName": "activity change", "unitTag": "%", "val": 9.17}
{"compound": "Cn1c(CNC(=O)c2ccccc2F)nnc1SCc1ccc(F)cc1", "measureName": "activity change", "unitTag": "%", "val": 18.4}
{"compound": "Nc1nnc(SCC(=O)NCC(=O)Nc2ccc(F)c(F)c2F)s1", "measureName": "activity change", "unitTag": "%", "val": -119}
{"compound": "Cc1cc(C)c2nc(N(CCN(C)C)C(=O)/C=C/c3cccs3)sc2c1", "measureName": "activity change", "unitTag": "%", "val": -103}
{"compound": "CC1(C2CC2)NC(=O)N(CC(=O)N2CCN(c3ccccc3F)CC2)C1=O (configuration not stated)", "measureName": "activity change", "unitTag": "%", "val": 3.05}
{"compound": "COc1ccccc1-n1c(SCC(=O)Nc2ccc(Cl)cc2)nc(O)c(Cc2ccccc2)c1=O", "measureName": "activity change", "unitTag": "%", "val": 4.83}
{"compound": "Cc1ccc(CCNC(=O)CN2C(=O)CSc3ccc(S(=O)(=O)N4CCOCC4)cc32)cc1", "measureName": "activity change", "unitTag": "%", "val": 4.19}
{"compound": "CCN(CC)CCNC(=O)c1ccc(NC(=O)c2cc(-c3ccncc3)nc3ccccc23)cc1", "measureName": "activity change", "unitTag": "%", "val": 4.76}
{"compound": "Nc1nnc(SCC(=O)NC2CCCc3ccccc32)s1 (configuration not stated)", "measureName": "activity change", "unitTag": "%", "val": -15.6}
{"compound": "CCCCC(=O)Nc1ccc(C(=O)Nc2cc(C(F)(F)F)ccc2Cl)cc1", "measureName": "activity change", "unitTag": "%", "val": -83.7}
{"compound": "Cc1ccc(S(=O)(=O)N(C)C)cc1NC(=O)/C=C/c1cccs1", "measureName": "activity change", "unitTag": "%", "val": -14.2}
{"compound": "CC1CN(C(=S)Nc2cccc(F)c2)CC(C)O1 (configuration not stated)", "measureName": "activity change", "unitTag": "%", "val": 6.1}
{"compound": "Cc1cccc(-n2cc(CN3CCN(C(=O)c4ncn[nH]4)CC3)c(-c3cccc(F)c3)n2)c1", "measureName": "activity change", "unitTag": "%", "val": 0.932}
{"compound": "O=C(N/C(=C\\c1ccc([N+](=O)[O-])cc1)C(=O)N1CCCCC1)c1ccco1", "measureName": "activity change", "unitTag": "%", "val": -4.37}
{"compound": "Cn1cc(CN2CCC(C(O)CCc3ccccc3)CC2)c(-c2ccccc2F)n1 (configuration not stated)", "measureName": "activity change", "unitTag": "%", "val": -8.61}
{"compound": "Cc1ccc(NC(=S)N/N=C2/CCCc3c(C)cc(C)cc32)cc1", "measureName": "activity change", "unitTag": "%", "val": -3.22}
